# ASSAY TARGET: Neutrophil elastase (Homo sapiens)
# PROCEDURE TEXT: Inhibitory activity against Human Neutrophil Elastase by HNE-catalyzed hydrolysis of MeO-Suc-Ala-Ala-Pro-Val-pNa
Overview of recorded log10 of Ki for various compounds
Could you please treat all values as log10 of Ki in nM?

Sample records with log10 of Ki:
COMPOUND	log10 of Ki
CC(C)[C@H](NC(=O)c1ccncc1)C(=O)N1CCC[C@H]1C(=O)N[C@H](C(=O)C(F)(F)F)C(C)C	0.58
CC(C)[C@H](NC(=O)Nc1ccc(F)cc1)C(=O)N1CCC[C@H]1C(=O)N[C@H](C(=O)C(F)(F)F)C(C)C	1.04
COC(=O)c1cc(C(=O)N[C@H](C(=O)N2CCCC2C(=O)NC(C(=O)C(F)(F)F)C(C)C)C(C)C)cc(C(=O)OC)c1 (some centres not stated)	1.04

What does the record list as log10 of Ki for CC(C)C(NC(=O)C1CCCN1C(=O)[C@@H](NC(=O)CCC(=O)NS(=O)(=O)c1cccc2ccccc12)C(C)C)C(=O)C(F)(F)F (some centres not stated) ?
0.79

Consider the compound shown here: CC(C)C(NC(=O)C1CCCN1C(=O)[C@@H](NC(=O)/C=C/c1ccc(C(=O)O)cc1)C(C)C)C(=O)C(F)(F)F (some centres not stated) What is its recorded log10 of Ki?
0.26

For the compound shown here, COc1ccc(C(=O)N[C@H](C(=O)N2CCCC2C(=O)NC(C(=O)C(F)(F)F)C(C)C)C(C)C)cc1OC (some centres not stated) , give the reported log10 of Ki.
0.04

I have this compound here, `CC(C)[C@H](NS(=O)(=O)C(F)(F)F)C(=O)N1CCC[C@H]1C(=O)N[C@H](C(=O)C(F)(F)F)C(C)C` , and I need its recorded log10 of Ki.
2.18

----------
# ASSAY TARGET: Neutrophil elastase (Homo sapiens, UniProt P08246)
# Sequence (P08246 whole entry): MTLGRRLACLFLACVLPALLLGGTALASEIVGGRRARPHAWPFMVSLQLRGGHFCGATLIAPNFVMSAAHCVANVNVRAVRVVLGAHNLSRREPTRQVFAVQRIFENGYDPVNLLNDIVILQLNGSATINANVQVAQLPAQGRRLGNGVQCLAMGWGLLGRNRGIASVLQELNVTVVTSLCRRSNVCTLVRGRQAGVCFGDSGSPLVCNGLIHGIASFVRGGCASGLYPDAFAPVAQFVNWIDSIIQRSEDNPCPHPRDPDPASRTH
# PROCEDURE TEXT: Inhibitory activity against Human Neutrophil Elastase by HNE-catalyzed hydrolysis of MeO-Suc-Ala-Ala-Pro-Val-pNa
Numbered stars: 1 amine (or outer) side, 2 acyl side, 3 side chain; on linkers, the order of the positions; unused ones are H or OH. Square brackets hold non-standard residues; d marks the D form. Peptide text beside a SMILES is read from it. * marks the point of attachment. ξ: configuration not given here. 4Abz = Nc1ccc(C(=O)O)cc1; CO = O=C([*:1])[*:2]; ξV = CC(C)C(N)C(=O)O; ξP = O=C(O)C1CCCN1; CF3 = FC(F)(F)*
REPORTED ENDPOINT: log10 of Ki (log10 of the value in nM)
log10 Ki, nM

COMPOUND	MEASURED
CC(C)[C@H](NC(=O)C(=O)O)C(=O)N1CCC[C@H]1C(=O)N[C@H](C(=O)C(F)(F)F)C(C)C	2.91
CC(C)C(NC(=O)C1CCCN1C(=O)[C@@H](NC(=O)Nc1ccc(C(=O)O)cc1)C(C)C)C(=O)C(F)(F)F (stereo partly specified) ({4Abz-CO}-Val-[ξP]-[ξV]-CF3)	1.00
CC(C)[C@H](NC(=O)c1cccnc1)C(=O)N1CCC[C@H]1C(=O)N[C@H](C(=O)C(F)(F)F)C(C)C (HELM PEPTIDE1{[O=C(c1cccnc1)[*:2]].V.P.V.[FC(F)(F)[*:1]]}$$$$V2.0)	0.89
CC(C)[C@H](NC(=O)Oc1ccccc1)C(=O)N1CCC[C@H]1C(=O)N[C@H](C(=O)C(F)(F)F)C(C)C	0.11
CC(C)C(NC(=O)C1CCCN1C(=O)[C@@H](NS(=O)(=O)c1ccc(Cl)cc1)C(C)C)C(=O)C(F)(F)F (stereo partly specified)	0.52
CC(=O)Nc1ccc(S(=O)(=O)N[C@H](C(=O)N2CCCC2C(=O)NC(C(=O)C(F)(F)F)C(C)C)C(C)C)cc1 (stereo partly specified)	1.74
CC(=O)N[C@H](C(=O)N1CCC[C@H]1C(=O)N[C@H](C(=O)C(F)(F)F)C(C)C)C(C)C (HELM PEPTIDE1{[ac].V.P.V.[FC(F)(F)[*:1]]}$$$$V2.0)	1.65
CC(C)C(NC(=O)C1CCCN1C(=O)[C@@H](NC(=O)c1ccc2ccccc2c1)C(C)C)C(=O)C(F)(F)F (stereo partly specified)	-0.06
CC(C)C(NC(=O)C1CCCN1C(=O)[C@@H](NS(=O)(=O)c1c(F)c(F)c(F)c(F)c1F)C(C)C)C(=O)C(F)(F)F (stereo partly specified)	0.20
CC(C)[C@H](NS(=O)(=O)c1ccccc1)C(=O)N1CCC[C@H]1C(=O)N[C@H](C(=O)C(F)(F)F)C(C)C	1.15

Moving on to another compound below.
// lookup log10 of Ki for CC(C)C(NC(=O)C1CCCN1C(=O)[C@@H](NC(=O)c1ccc(C(=O)NCCN(C)C)cc1)C(C)C)C(=O)C(F)(F)F (stereo partly specified)
0.73
